B1: Matrilin-3 (Homo sapiens), O15232 (parent)
chain: MPRPAPARRLPGLLLLLWPLLLLPSAAPDPVARPGFRRLETRGPGGSPGRRPSPAAPDGAPASGTSEPGRARGAGVCKSRPLDLVFIIDSSRSVRPLEFTKVKTFVSRIIDTLDIGPADTRVAVVNYASTVKIEFQLQAYTDKQSLKQAVGRITPLSTGTMSGLAIQTAMDEAFTVEAGAREPSSNIPKVAIIVTDGRPQDQVNEVAARAQASGIELYAVGVDRADMASLKMMASEPLEEHVFYVETYGVIEKLSSRFQETFCALDPCVLGTHQCQHVCISDGEGKHHCECSQGYTLNADKKTCSALDRCALNTHGCEHICVNDRSGSYHCECYEGYTLNEDRKTCSAQDKCALGTHGCQHICVNDRTGSHHCECYEGYTLNADKKTCSVRDKCALGSHGCQHICVSDGAASYHCDCYPGYTLNEDKKTCSATEEARRLVSTEDACGCEATLAFQDKVSSYLQRLNTKLDDILEKLKINEYGQIHR
partner: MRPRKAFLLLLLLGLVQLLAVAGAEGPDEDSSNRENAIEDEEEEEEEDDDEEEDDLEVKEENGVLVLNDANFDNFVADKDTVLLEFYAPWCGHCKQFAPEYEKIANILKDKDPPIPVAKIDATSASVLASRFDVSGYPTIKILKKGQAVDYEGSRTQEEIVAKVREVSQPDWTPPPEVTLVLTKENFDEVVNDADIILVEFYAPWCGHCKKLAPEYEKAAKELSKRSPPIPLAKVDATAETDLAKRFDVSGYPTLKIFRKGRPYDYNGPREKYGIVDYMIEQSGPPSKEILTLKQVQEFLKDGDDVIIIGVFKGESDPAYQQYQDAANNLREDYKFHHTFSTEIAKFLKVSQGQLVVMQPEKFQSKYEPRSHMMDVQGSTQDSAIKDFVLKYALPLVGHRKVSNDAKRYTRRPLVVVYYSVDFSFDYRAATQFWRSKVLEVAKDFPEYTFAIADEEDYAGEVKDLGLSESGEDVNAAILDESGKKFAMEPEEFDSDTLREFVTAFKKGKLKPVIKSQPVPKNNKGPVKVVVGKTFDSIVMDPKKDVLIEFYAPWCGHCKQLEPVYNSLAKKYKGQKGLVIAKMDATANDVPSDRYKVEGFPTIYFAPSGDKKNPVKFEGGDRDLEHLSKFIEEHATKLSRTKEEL

# Variants of: B1
# REPORTED CONDITIONS: with pdia4_human PDIA4, P13667
EXPERIMENTAL READOUT: effect of a mutation on the interaction

A219D : causing an interaction
V194D : causing an interaction
R121W : causing an interaction

From: IntAct's records for PubMed 16287128
